# measured target: first (BD1: amino acids K57-E168) bromodomain of BRD4 (Homo sapiens, UniProt O60885)
# Construct: His-tagged first (BD1: amino acids K57-E168)
# assay details: TR-FRET bromodomain binding assay, BRD4 BD1
# experimental context: TR-FRET assay protocol (A-G, compound concentration range); Ki calculated from IC50, probe Kd and probe concentration; read-out: TR-FRET Binding Ki: BRD4 (BDI_K57-E168)
test readout: Ki

The cases that follow already have their Ki on record.
| smiles structure | Ki |
| --- | --- |
| COc1cc(=O)n(C)nc1-c1ccccc1OCc1ccc2[nH]ncc2c1 | > 12900 nM |
| CCOc1cc(=O)n(C)cc1-c1cc(NC(=O)c2ccc(OC(C)C)cc2)ccc1Oc1ccc(F)cc1F | 61.8 nM |

Please state Ki for every molecule in the list that follows.
1. CCOc1cc(=O)n(C)cc1-c1cc(NC(=O)c2ccc(NC(C)=O)cc2)ccc1Oc1ccc(F)cc1F
2. Cn1nc(-c2ccccc2OC2CCCC2)ccc1=O
3. Cn1cc(-c2cc(=O)n(C)nc2-c2ccccc2Oc2ccccc2)cn1
4. CCO/C=C/c1cc(=O)n(C)cc1-c1cc(S(C)(=O)=O)ccc1NCC1CC1
5. CCS(=O)(=O)Nc1ccc(Oc2ccc(F)cc2F)c(-c2cn(C)c(=O)cc2C(F)(F)F)c1
6. CCOc1cc(=O)n(C)cc1-c1cc(NS(=O)(=O)c2ccccc2)ccc1Oc1ccc(F)cc1F

## Output
1: 25.6 nM; 2: 1340 nM; 3: 253 nM; 4: 680 nM; 5: 483 nM; 6: 23.1 nM
